Data provenance is patent US20260174875A1.

target: human GLP-1 receptor (hGLP-1R) (Homo sapiens); construct: expressed in transfected cells; test: GLP-1 receptor assay, method A (CRE-luciferase reporter, BHK cells); format: cell-based; conditions: hGLP-1R Potency, 1% HSA, EC50, method A, in the presence of 1% HSA
Sequence (P43220 24-463): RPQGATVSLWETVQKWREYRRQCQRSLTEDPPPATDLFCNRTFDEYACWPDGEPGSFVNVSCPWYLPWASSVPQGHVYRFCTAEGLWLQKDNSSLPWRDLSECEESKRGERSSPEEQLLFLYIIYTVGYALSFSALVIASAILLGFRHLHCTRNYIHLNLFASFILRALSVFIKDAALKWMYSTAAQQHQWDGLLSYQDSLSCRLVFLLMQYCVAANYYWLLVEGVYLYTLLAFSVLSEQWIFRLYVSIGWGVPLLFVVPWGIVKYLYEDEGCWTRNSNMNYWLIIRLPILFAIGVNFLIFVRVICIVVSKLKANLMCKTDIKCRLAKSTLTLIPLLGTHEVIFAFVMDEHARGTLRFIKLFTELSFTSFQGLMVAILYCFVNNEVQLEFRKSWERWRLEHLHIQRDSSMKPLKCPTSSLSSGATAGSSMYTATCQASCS
Numbered stars: 1 amine (or outer) side, 2 acyl side, 3 side chain; on linkers, the order of the positions; unused ones are H or OH. Square brackets hold non-standard residues; d marks the D form. Side chains are listed from the residue outwards. * marks the point of attachment. C18 diacid = O=C(O)CCCCCCCCCCCCCCCCC(=O)*; γGlu = O=C(O)[C@H](CCC(=O)[*:2])N[*:1]; AEEA = NCCOCCOCC(=O)O; Aib = CC(C)(N)C(=O)O
ATTRIBUTE MEASURED: EC50 (nM)
Provide only the numeric value, understood in nM.

Example entries and their recorded answers appear below.
{"SUBSTANCE": "H[Aib]HGTFTSDYSILLEEQAAREFIEWLLAGGPSK([AEEA-AEEA-γGlu-C18 diacid])GEASQLSTAALGRLSAELHRLATLPRTETGSGSP-NH2 [Compound 73]", "TARGET OF ASSAY": "human GLP-1 receptor (hGLP-1R) (Homo sapiens)", "UOM": "nM", "EC50": 0.0541}
{"SUBSTANCE": "Y[Aib]EGTFTSDYSILLEEQAAREFIEWLLAGGPSSGAGQAPGQAPGASHLSTAQTARLSAELHK([AEEA-AEEA-γGlu-C18 diacid])LATLPRTETGSGSP-NH2 [Compound 113]", "TARGET OF ASSAY": "human GLP-1 receptor (hGLP-1R) (Homo sapiens)", "UOM": "nM", "EC50": 0.0575}
{"SUBSTANCE": "H[Aib]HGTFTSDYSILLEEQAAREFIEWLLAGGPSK([AEEA-AEEA-γGlu-C18 diacid])GAPPPSGGGEASHLSTAQTARLSAELHQLATLPRTETGSGSP-NH2 [compound 101]", "TARGET OF ASSAY": "human GLP-1 receptor (hGLP-1R) (Homo sapiens)", "UOM": "nM", "EC50": 0.179}

Next substance, EC50 to be filled in.
Kindly note the recorded EC50 for H[Aib]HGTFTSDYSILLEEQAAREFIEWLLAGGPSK([AEEA-AEEA-γGlu-C18 diacid])GAPPPSGGGGASELSTAALGRLSAELHRLATLPRTETGSGSP-NH2 [Compound 14] , which is 0.0759
